Test Target: human Claudin18.2 (human)
Assay Details: cell-based or functional assay
Each record here notes measured in vitro cell killing EC50, NUGC4-claudin18.2 high expression cells (CellTiter-Glo).
Readout Label: in vitro cell killing EC50, NUGC4-claudin18.2 high expression cells (CellTiter-Glo) (nM)

Binder | Measured
ADC-5 (antibody, human IgG1, kappa, V domains shown, compound 9-A coupled to sulfhydryl groups after TCEP reduction; mean drug loading n=6.8 per antibody; positions not given) VH: EVQLVESGGGLVQPGGSLRLSCAASGFTFSDYGIHWVRQAPGKGLEWIAYISRGSSTIYYADTVKGRFTISRDNAKNSLYLQMTSLRAEDTAVYYCARGGYDTRNAMDYWGQGTTVTVSS VL: DIVMTQSPDSLAVSLGERATISCKSSQSLLNSGNQKNYLAWYQQKPGQPPKLLIYGASTRASGVPDRFSGSGSGTDFTLTISSLQAEDVAIYHCQNDLYYPLTFGQGTKLEIKR | 3.5
ADC-2 (antibody, human IgG1, kappa, V domains shown, compound 9-A coupled to sulfhydryl groups after TCEP reduction; mean drug loading n=7.1 per antibody; positions not given) VH: EVQLVESGGGLVQPGGSLRLSCAASGFTFSDYGIHWVRQAPGKGLEWIAYISRGSSTIYYADTVKGRFTISRDNAKNSLYLQMTSLRAEDTAVYYCARGGYDTRNAMDYWGQGTTVTVSS VL: DIVMTQSPDSLAVSLGERATISCKSSQSLLNSGNQKNYLAWYQQKPGQPPKLLIYGASTRASGVPDRFSGSGSGTDFTLTISSLQAEDVAIYHCQNDLYYPLTFGQGTKLEIKR | 1.9
ADC-4 (antibody, human IgG1, kappa, V domains shown, compound 9-A coupled to sulfhydryl groups after TCEP reduction; mean drug loading n=4.06 per antibody; positions not given) VH: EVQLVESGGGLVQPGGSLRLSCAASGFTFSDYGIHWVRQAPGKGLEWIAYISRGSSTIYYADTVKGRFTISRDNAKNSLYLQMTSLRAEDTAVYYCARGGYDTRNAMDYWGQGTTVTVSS VL: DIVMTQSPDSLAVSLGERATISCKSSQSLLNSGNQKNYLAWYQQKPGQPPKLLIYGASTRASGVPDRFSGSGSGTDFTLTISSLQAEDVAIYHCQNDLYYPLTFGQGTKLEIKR | 12
ADC-3 (antibody, human IgG1, kappa, V domains shown, compound 9-A coupled to sulfhydryl groups after TCEP reduction; mean drug loading n=2.51 per antibody; positions not given) VH: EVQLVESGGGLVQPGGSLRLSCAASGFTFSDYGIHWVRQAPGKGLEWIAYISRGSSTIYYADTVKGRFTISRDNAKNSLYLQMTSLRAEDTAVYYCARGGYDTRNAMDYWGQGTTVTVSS VL: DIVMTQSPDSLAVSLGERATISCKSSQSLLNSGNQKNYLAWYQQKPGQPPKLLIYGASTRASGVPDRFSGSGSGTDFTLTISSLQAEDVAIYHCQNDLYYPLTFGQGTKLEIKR | 94
